src = patent US7205275

Please go through the items and note down their pIC50.
target.or.test.system: T1, human Ang-2 (human, UniProt O15123)
T1 chain: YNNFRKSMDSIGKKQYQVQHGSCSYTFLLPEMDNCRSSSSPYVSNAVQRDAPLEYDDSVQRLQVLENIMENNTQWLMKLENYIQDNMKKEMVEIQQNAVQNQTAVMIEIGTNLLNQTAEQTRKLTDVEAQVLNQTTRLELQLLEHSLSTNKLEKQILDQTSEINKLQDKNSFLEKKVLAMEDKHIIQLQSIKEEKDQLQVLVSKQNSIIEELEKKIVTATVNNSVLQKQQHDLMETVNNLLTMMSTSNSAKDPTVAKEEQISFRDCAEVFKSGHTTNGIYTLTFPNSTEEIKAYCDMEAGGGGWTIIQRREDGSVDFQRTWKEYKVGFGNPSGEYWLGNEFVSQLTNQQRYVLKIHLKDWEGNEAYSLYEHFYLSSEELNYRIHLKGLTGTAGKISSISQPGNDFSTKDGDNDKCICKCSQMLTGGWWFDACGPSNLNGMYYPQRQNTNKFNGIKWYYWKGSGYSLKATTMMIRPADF
protocol.notes: competition ELISA vs Tie-2
pIC50: −log10 of the molar value. Primed or numbered codes have the meaning given here. Where no end group is shown, it is not given here. [ ]: non-standard residue; d: D form. Fc(7) = Fc domain, peptide fused N- or C-terminal to it

Entry M[Fc(7)]GGGGGAQFGWSHGCEWDPWTCRLLQGWLE (not fully specified (bridges); cysteine pairing not given here) [Con4-2 (C)] has what pIC50?
< 6.00

// query pIC50 value for entry M[Fc(7)]GGGGGAQAATQEECEWDPWTCRLLQGWLE (not fully specified (bridges); cysteine pairing not given here) [AC5-Con4 (C)]
< 6.00
